Where do the numbers come from? From patent US9926324B2.

systemName: PI3K (p120γ) (h) (Homo sapiens, UniProt P48736)
Sequence (P48736 whole entry): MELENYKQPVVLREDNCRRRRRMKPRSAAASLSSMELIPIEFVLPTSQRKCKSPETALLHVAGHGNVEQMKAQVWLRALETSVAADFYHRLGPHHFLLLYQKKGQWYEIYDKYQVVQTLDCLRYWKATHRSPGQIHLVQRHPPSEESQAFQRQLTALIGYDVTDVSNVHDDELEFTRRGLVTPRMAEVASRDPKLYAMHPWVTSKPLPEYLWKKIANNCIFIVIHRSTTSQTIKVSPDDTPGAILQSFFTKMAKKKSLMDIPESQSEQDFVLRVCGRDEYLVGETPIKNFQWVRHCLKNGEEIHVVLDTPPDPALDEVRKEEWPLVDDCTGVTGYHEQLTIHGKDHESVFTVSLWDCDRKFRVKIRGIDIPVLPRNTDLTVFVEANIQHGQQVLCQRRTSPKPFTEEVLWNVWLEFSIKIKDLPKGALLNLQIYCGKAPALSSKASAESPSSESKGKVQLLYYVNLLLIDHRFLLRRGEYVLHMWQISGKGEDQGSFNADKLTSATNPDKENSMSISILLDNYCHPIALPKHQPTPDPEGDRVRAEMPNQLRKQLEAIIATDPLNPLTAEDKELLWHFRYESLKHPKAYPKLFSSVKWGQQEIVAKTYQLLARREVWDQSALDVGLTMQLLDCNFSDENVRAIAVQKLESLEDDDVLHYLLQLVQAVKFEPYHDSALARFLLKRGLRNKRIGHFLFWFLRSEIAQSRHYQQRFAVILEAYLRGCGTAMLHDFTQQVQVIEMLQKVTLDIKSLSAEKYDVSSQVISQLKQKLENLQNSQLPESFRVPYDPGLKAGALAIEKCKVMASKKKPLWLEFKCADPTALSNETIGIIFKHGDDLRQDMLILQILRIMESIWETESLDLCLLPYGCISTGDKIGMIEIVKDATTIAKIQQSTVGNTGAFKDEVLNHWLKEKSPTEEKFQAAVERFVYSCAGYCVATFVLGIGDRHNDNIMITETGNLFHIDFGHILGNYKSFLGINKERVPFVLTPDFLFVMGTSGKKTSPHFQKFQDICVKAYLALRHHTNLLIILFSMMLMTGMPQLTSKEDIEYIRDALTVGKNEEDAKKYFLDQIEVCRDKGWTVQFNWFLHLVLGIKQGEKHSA
measuredMetric: IC50 (nM)

> print(dat)
                             compoundsmiles  measuredmetric  endpointvalue
1  COc1ncc(-c2ccc3ncc(C#CCO)n3c2)cc1NS(=O)(=O)c1ccc(F)cc1F            IC50             37

====

experimentalProtocol: Pharmacokinetic profiles in rats after intravenous and oral administration
Assay type: in vivo
experimentalConditions: rat, plasma, iv dosing 1 mg/kg
Classify: YES when half-life is strictly less than 4 h; NO when half-life is not.

> print(dat)
                                   compound  class
1  C#Cc1cnc2ccc(-c3cnc(OC)c(NS(=O)(=O)c4ccc(F)cc4)c3)nn12     NO
2  COc1ncc(-c2ccc3ncc(C#N)n3n2)cc1NS(=O)(=O)c1ccc(F)cc1    YES
3  COc1ncc(-c2ccc3ncc(C#CC(C)(C)O)n3n2)cc1NS(=O)(=O)c1ccc(F)cc1F     NO
4  CC#Cc1cnc2ccc(-c3cnc(OC)c(NS(=O)(=O)c4ccc(F)cc4F)c3)cn12    YES
5  COc1ncc(-c2ccc3ncc(C#CC(C)O)n3c2)cc1NS(=O)(=O)c1ccc(F)cc1F (stereo not drawn)    YES
6  CC#Cc1cnc2ccc(-c3cnc(OC)c(NS(=O)(=O)c4ccc(F)cc4F)c3)nn12    YES
